The following compounds are listed with their measured Luminescence values.
test system: HEK293T cells; experiment: In vitro Luc-mRNA transfection, luciferase luminescence expression in HEK293T cells; type: cell-based, human; parameters: unit not given here; details: Table 16; HEK 293T cells, 125 ng/well, n=3

compound: CCCCCCCCCCCCCCCOc1cc(COC(=O)CCCN2CCN(CCO)CC2)cc(OCCCCCCCCCCCCC)c1 [IAJD 146]
Luminescence: 50,625

compound: CCCCCCCCCCCCCCCOc1cc(COC(=O)CCCN2CCN(CCO)CC2)cc(OCCCCCCCCCCCC)c1 [IAJD 144]
Luminescence: 253,672

compound: CCCCCCCCCCCCOc1cc(COC(=O)c2cc(OCCOCCOCCCC(=O)CCCN3CCCCC3)c(OCCOCCOCCOCc3ccccc3)c(OCCOCCOCCOC(=O)CCCN3CCCCC3)c2)cc(OCCCCCCCCCCCC)c1 [IAJD 110]
Luminescence: 47

compound: CCCCCCCCCCCCCCCCCOc1cc(CNC(=O)c2cc(OCCOCCOCCOC(=O)CCCN3CCCCC3)c(OCCCOCOCCOCc3ccccc3)c(OCCOCCOCCOC(=O)CCCN3CCCCC3)c2)cc(OCCCCCCCCCCCCCCCCC)c1 [IAJD 159]
Luminescence: 24,055

compound: CCCCCCCCCCCCCCCCOc1cc(COC(=O)CCCN2CCN(C)CC2)cc(OCCCCCCCCCCCCCCC)c1 [IAJD 149]
Luminescence: 149,935

compound: CCCCCCCCCCCCCCCOc1cc(COC(=O)CCCN2CCN(C)CC2)cc(OCCCCCCCCCCCCCC)c1 [IAJD 147]
Luminescence: 5,844

compound: CCCCCCCCCCCCCCCOc1cc(COC(=O)CCCN2CCN(C)CC2)cc(OCC(CC)CCCC)c1 (stereo not shown) [IAJD 135]
Luminescence: 432

compound: CCCCCCCCCCCCCCCCCCOc1cc(COC(=O)CCCN2CCN(CCO)CC2)cc(OCCCCCCCCCCC)c1 [IAJD 128]
Luminescence: 449,311

compound: CCCCCCCCCCCCCCCCOc1cc(COC(=O)CCCN2CCN(C)CC2)cc(OCCCCCCCCCCCCC)c1 [IAJD 173]
Luminescence: 2,302

compound: CCCCCCCCCCCCCCOc1cc(COC(=O)CCCN2CCN(C)CC2)cc(OCCCCCCCCCCCCC)c1 [IAJD 171]
Luminescence: 1,436

compound: CCCCCCCCCCCCCCCCCOc1cc(COC(=O)CCCN2CCN(CCO)CC2)cc(OCCCCCCCCCCCCCCC)c1 [IAJD 152]
Luminescence: 88,202

compound: CCCCCCCCCCCCCOc1cc(COC(=O)CCCN2CCN(C)CC2)cc(OCC(CC)CCCC)c1 (stereo not shown) [IAJD 161]
Luminescence: 128

compound: CCCCCCCCCCCCCCCOc1cc(COC(=O)CCCN2CCN(C)CC2)cc(OCCCCCCCCCCCCC)c1 [IAJD 145]
Luminescence: 296

----------
test: Stability of DNPs by DLS after storage at 5° C.; type: physicochemical; set-up: key: U: DLS curve showed unimodal size distribution; B: DLS curve showed bimodal size distribution; M: DLS curve showed multimodal size distribution; conditions: before storage; IAJD 4.0 mg/mL + Luc-mRNA 0.1 mg/mL, acetate buffer pH 4.00
outcome-measure: Original size distribution type (DLS curve)

compound: CCCCCCCCCCCCCCCOc1cc(COC(=O)CCCN2CCN(CCO)CC2)cc(OCC(CC)CCCC)c1 (stereo not shown)
observed-value: (U)
//
compound: CCCCCCCCCCCCCCOc1cc(COC(=O)c2cc(OCCOCCOCCCC(=O)CCCN3CCCCC3)c(OCCOCCOCCOCc3ccccc3)c(OCCOCCOCCOC(=O)CCCN3CCCCC3)c2)cc(OCCCCCCCCCCC)c1
observed-value: (U)
//
compound: CCCCCCCCCCCCCCCCCCOc1cc(COC(=O)CCCN2CCN(CCO)CC2)cc(OCCCCCCCCCCCCC)c1
observed-value: (U)
//
compound: CCCCCCCCCCCOc1cc(COC(=O)c2cc(OCCOCCOCCCC(=O)CCCN3CCCCC3)c(OCCOCCOCCOCc3ccccc3)c(OCCOCCOCCOC(=O)CCCN3CCCCC3)c2)cc(OCCCCCCCCCCC)c1
observed-value: (U)
//
compound: CCCCCCCCCCCCCCCCCOc1cc(COC(=O)c2cc(OCCOCCOCCCC(=O)CCCN3CCCCC3)c(OCCOCCOCCOCc3ccccc3)c(OCCOCCOCCOC(=O)CCCN3CCCCC3)c2)cc(OCCCCCCCCCCC)c1
observed-value: (U)
//
compound: CCCCCCCCCCCCCCCOc1cc(COC(=O)CCCN2CCN(CCO)CC2)cc(OCCCCCCCCCCC)c1
observed-value: (M)
//
compound: CCCCCCCCCCCOc1cc(COC(=O)CCCN2CCN(CCO)CC2)cc(OCCCCCCCCC)c1
observed-value: (B)

Reference for the values: patent US20240252677A1
